Reported kon is given for each of the following binders.
biological target: T1, hen egg lysozyme (Gallus gallus (hen), UniProt P00698); assay: SPR; Biacore T200; HEL immobilised on CM5 chip (200 RU); VHH flowed over; 25 °C; PBS with 0.005% Tween 20; global fit to a 1:1 binding model; conditions: both partners purified
T1 construct: hen egg lysozyme (lysozyme C), bought from Wako Pure Chemical; also called HEL; source: bought: Wako Pure Chemical (Cat. No. 126-02671), used without further purification
T1 sequence (P00698 19-147): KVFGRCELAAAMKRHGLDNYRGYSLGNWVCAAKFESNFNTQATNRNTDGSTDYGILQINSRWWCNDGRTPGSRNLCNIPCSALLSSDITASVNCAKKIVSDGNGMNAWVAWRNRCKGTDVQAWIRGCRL
Numeric answer only, unit M⁻¹ s⁻¹ assumed.

Solved cases (4 shown):
{"binder": "D3-L11 S113A (VHH, as the VHH chain of m2 with the stated change; source: E. coli BL21(DE3), purified (Ni-NTA, SEC)) VHH: DVQLVESGGGSVQAGGSLRLSCAASGSTDSIEYMTWFRQAPGKAREGVAALYTHTGNTYYTDSVKGRFTISQDKAKNMAYLRMDSVKSEDTAIYTCGATRKYVPVRFALDQSAYDYWGQGTQVTVSS", "assay_value": "5.17e+06"}
{"binder": "D3-L11 F107A (VHH, as the VHH chain of m2 with the stated change; source: E. coli BL21(DE3), purified (Ni-NTA, SEC)) VHH: DVQLVESGGGSVQAGGSLRLSCAASGSTDSIEYMTWFRQAPGKAREGVAALYTHTGNTYYTDSVKGRFTISQDKAKNMAYLRMDSVKSEDTAIYTCGATRKYVPVRAALDQSSYDYWGQGTQVTVSS", "assay_value": "8.99e+06"}
{"binder": "D3-L11 (VHH, VHH D3-L11 specific for HEL; Synthetic gene in pRA2 with a pelB signal peptide at the N-terminus and a His6-tag at the C-terminus; also called WT; WT antibody; source: E. coli BL21(DE3), purified (Ni-NTA, SEC)) VHH: DVQLVESGGGSVQAGGSLRLSCAASGSTDSIEYMTWFRQAPGKAREGVAALYTHTGNTYYTDSVKGRFTISQDKAKNMAYLRMDSVKSEDTAIYTCGATRKYVPVRFALDQSSYDYWGQGTQVTVSS", "assay_value": "6.1e+06"}
{"binder": "D3-L11 K101A (VHH, as the VHH chain of m2 with the stated change; source: E. coli BL21(DE3), purified (Ni-NTA, SEC)) VHH: DVQLVESGGGSVQAGGSLRLSCAASGSTDSIEYMTWFRQAPGKAREGVAALYTHTGNTYYTDSVKGRFTISQDKAKNMAYLRMDSVKSEDTAIYTCGATRAYVPVRFALDQSSYDYWGQGTQVTVSS", "assay_value": "7.54e+06"}

Lookup: Answer with reported kon of D3-L11 E32A (VHH, as the VHH chain of m2 with the stated change; source: E. coli BL21(DE3), purified (Ni-NTA, SEC)) VHH: DVQLVESGGGSVQAGGSLRLSCAASGSTDSIAYMTWFRQAPGKAREGVAALYTHTGNTYYTDSVKGRFTISQDKAKNMAYLRMDSVKSEDTAIYTCGATRKYVPVRFALDQSSYDYWGQGTQVTVSS
Found: 6.43e+06
